Values compiled from BigSolDB 2.1.

# condition_notes: in sec-butanol, 303.15 K
measured_endpoint: solubility (mole fraction)
Form rule: numeric answer, no unit written next to it.

Which value of solubility (mole fraction) has been reported for c1ccc2[nH]cnc2c1 in the records? 0.117

====

# condition_notes: in isobutyl acetate, 303.15 K
measured_endpoint: solubility (mole fraction)
Form rule: numeric answer, no unit written next to it.

Which value of solubility (mole fraction) has been reported for c1ccc2[nH]cnc2c1 in the records? 0.0122

====

# condition_notes: in n-propyl acetate, 313.15 K
measured_endpoint: solubility (mole fraction)
Form rule: numeric answer, no unit written next to it.

Which value of solubility (mole fraction) has been reported for c1ccc2[nH]cnc2c1 in the records? 0.0165
